Readings of OD450 for the listed binders
# tgt: T1, Human CD19-his protein (human, UniProt P15391 20-291)
# T1 construct: bought protein; also called human CD19 protein; recombinant human CD19-His; not shown: His tag
# T1 sequence (looked up): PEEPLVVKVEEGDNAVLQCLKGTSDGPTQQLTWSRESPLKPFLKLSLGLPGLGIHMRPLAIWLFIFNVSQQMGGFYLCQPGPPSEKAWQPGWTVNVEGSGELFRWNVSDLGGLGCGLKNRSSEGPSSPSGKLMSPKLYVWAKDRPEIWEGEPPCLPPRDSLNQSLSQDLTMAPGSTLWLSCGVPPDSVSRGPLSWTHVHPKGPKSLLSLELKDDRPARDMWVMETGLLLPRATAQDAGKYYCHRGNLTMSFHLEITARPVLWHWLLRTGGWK
# assayDetails: ELISA, antibody at 0.001 nM
quantityName: OD450

>  <binder>
F6.5.20 (antibody, human IgG1, V domains shown, human-murine chimeric antibody, human IgG1) VH: QVQLQQPGAELVKPGASVKLSCKASGYTFTSYWMQWVKQRPGQGLEWIGEIDPSDSYTNYNQKFKGKASLTVDTSSSTAYMQLSSLTSEDSAVYYCARWGLLRNYYVMDYWGQGTSVTVSS VL: EIVLTQSPTTMAASPGEKITITCSASSSISSNYLHWYQQKPGFSPKLLIYRTSNLASGVPARFSGSGSGTSYSLTIGTMEAEDVATYYCQQGSSIPRMLTFGAGTKLELK

>  <quantityName>
OD450

>  <measuredValue>
0.06

$$$$
>  <binder>
F3.13.2 (antibody, human IgG1, V domains shown, human-murine chimeric antibody, human IgG1) VH: DVQLQESGPGLMKPSQSLSLTCSVTGYSITSGYYWNWIRQFPGNKLEWMGYISYDGSNNYNPSLKNRFSITRDTSKNQFFLKLNSVTTEDTATYYCARRKLTGGPYFDYWGQGTTLTVSS VL: DIVLTQSPASLAVTLGQRATISCRASESVSFHGFHIMHWYQQKPGQPPKLLIYAASHLVSGVPDRFSGSGSETDFTLNIHPVEEEDAAAYFCQQSVEDPWTFGGGTKLEIK

>  <quantityName>
OD450

>  <measuredValue>
0.05

$$$$
>  <binder>
F3.126.15 (antibody, human IgG1, V domains shown, human-murine chimeric antibody, human IgG1) VH: QVQLQQPGAELVMPGASVKLSCKASGYTFTSYWMHWVKQRPGQGLEWIGEIDPSDSYTTYNQNFKGKATLTVDISTSTAYIQLSNLTSEDSAVYYCARLTGNYIHYWGQGTTLTVSS VL: DIVMTQSHKFMSTSVGDRVSITCKASQDVSPAVAWYQQRPGQCPKLLIFSSSYRSTGVPDRFTGSGSGTDFTFTISSVQAEDLAVYYCQQHYSLPLTFGAGTKLELK

>  <quantityName>
OD450

>  <measuredValue>
0.05

$$$$
>  <binder>
F4.107.12 (antibody, human IgG1, V domains shown, human-murine chimeric antibody, human IgG1) VH: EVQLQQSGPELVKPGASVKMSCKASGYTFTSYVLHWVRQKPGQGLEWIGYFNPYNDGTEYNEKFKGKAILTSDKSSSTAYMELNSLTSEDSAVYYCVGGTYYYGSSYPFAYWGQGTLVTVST VL: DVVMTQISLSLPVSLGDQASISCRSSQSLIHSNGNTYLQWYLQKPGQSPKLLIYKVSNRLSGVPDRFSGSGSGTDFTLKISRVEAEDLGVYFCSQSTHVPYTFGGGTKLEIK

>  <quantityName>
OD450

>  <measuredValue>
0.08

$$$$
>  <binder>
F1-mab003 (antibody, human IgG1, V domains shown, human-murine chimeric antibody, human IgG1) VH: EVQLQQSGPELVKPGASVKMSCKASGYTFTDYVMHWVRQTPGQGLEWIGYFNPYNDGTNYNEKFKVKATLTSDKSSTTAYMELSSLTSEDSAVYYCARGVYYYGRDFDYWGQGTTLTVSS VL: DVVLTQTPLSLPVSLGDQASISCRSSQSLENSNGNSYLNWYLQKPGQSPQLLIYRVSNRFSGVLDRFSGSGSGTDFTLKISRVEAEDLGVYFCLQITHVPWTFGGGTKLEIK

>  <quantityName>
OD450

>  <measuredValue>
0.08

$$$$
